# Subject of test: CCR1 (Homo sapiens)
# Sequence (P32246 1-355): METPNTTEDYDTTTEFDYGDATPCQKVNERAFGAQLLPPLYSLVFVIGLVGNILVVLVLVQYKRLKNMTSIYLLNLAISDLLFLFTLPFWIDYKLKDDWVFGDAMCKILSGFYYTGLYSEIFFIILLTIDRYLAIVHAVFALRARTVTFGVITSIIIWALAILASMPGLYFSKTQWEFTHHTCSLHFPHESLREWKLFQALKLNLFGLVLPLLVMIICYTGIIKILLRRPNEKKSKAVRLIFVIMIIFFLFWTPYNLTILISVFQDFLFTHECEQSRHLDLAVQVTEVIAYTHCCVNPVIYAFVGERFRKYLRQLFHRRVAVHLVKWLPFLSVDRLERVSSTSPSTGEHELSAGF
# Test method notes: Chemotaxis assay (CTX): inhibition of CCR1 mediated migration of THP-1 or monocyte cells
# Recorded conditions: class symbols; activity for either the chemotaxis assay or binding assay
pIC50: −log10 of the molar value.
Give measured pIC50 for each item. Keep answers brief.

CCC(C(=O)N1CCCc2c1cnn2-c1ccc(F)cc1)n1nc(-c2ncccn2)c(Cl)c1C (centres unmarked)    > 6.00

Consider the following items and state reported pIC50 for each.
1. Cc1c(Cl)c(S(C)(=O)=O)nn1CC(=O)N1CCCc2c1cnn2-c1ccc(F)cc1
2. O=C(Cc1nc(C(F)(F)F)c2ccccn12)N1CCCc2c1cnn2-c1ccc(F)cc1

**Result**
> 6.00
> 6.00

Hello, I would appreciate it if you could give pIC50 for each entry below.
1. Cc1nc(C(F)(F)F)cn1[C@@H](C)C(=O)N1CCCc2c1cnn2-c1ccc(Cl)cc1
2. O=C(Cc1nc2ccccc2o1)N1CCCc2c1cnn2-c1ccc(F)cc1

**Result**
1: > 6.00; 2: > 6.00

---

Task for the reader: assign each of the following compounds its reported pIC50.
# Subject of test: CCR1 (Homo sapiens, UniProt P32246)
# Test method notes: Chemotaxis assay (CTX): inhibition of CCR1 mediated migration of THP-1 or monocyte cells
# Recorded conditions: class symbols; activity for either the chemotaxis assay or binding assay
pIC50: −log10 of the molar value.

Record excerpt, results attached:
Cc1c(Cl)cccc1CC(=O)N1CCCc2c1cnn2-c1ccc(F)cc1    < 4.90
Cc1c(Cl)c(C#N)nn1CC(=O)N1CCCc2c1cnn2-c1ccc(F)cc1    > 6.00
CC[C@@H](C(=O)N1CCCc2c1cnn2-c1ccc(F)cc1)n1nc(C(F)(F)F)c(Cl)c1C    > 6.00
Cc1c(Cl)c(C(F)F)nn1CC(=O)N1CCCc2c1cnn2-c1ccc(F)cc1    > 6.00
O=C(Cn1cnc2ncccc21)N1CCCc2c1cnn2-c1ccc(F)cc1    4.90 to 5.60

// for each compound in input: emit pIC50
1. Cc1c(Cl)c(C2=NCCN2)nn1CC(=O)N1CCCc2c1cnn2-c1ccc(F)cc1
2. O=C(Cn1ncc2cccnc21)N1CCCc2c1cnn2-c1ccc(F)cc1

**Result**
["> 6.00", "> 6.00"]

---

# Subject of test: CCR1 (Homo sapiens)
# Sequence (P32246 1-355): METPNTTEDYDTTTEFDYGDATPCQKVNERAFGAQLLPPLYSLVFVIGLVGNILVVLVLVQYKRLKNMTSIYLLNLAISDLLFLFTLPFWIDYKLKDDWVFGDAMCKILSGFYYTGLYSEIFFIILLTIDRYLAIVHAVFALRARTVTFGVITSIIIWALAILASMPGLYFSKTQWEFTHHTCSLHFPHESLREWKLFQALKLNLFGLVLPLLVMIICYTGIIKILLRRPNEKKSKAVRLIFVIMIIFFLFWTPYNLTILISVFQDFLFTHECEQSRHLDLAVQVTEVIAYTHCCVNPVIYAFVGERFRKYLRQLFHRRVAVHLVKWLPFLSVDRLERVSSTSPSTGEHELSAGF
# Test method notes: Chemotaxis assay (CTX): inhibition of CCR1 mediated migration of THP-1 or monocyte cells
# Recorded conditions: class symbols; activity for either the chemotaxis assay or binding assay
Measurement label: IC50

Some solved cases for reference:
Cc1c(Cl)c(-c2ncc[nH]2)nn1CC(=O)N1CCCc2c1cnn2-c1ccc(F)cc1    < 1 µM
Cc1ccnn1CC(=O)N1CCCc2c1cnn2-c1ccc(F)cc1    < 1 µM
CCC(C(=O)N1CCCc2c1cnn2-c1ccc(F)cc1)n1cc(C(F)(F)F)nc1C (centres unmarked)    < 1 µM

Items follow; give IC50 for each.
1. Cc1c(Cl)c(C(F)(F)F)nn1C(C)C(=O)N1CCCc2c1cnn2-c1ccc(F)cc1 (centres unmarked)
2. Cc1cc(C(F)(F)F)nn1CC(=O)N1CCCc2c1cnn2-c1ccc(F)cc1
3. O=C(Cn1nc(C(F)(F)F)c2cccnc21)N1CCCc2c1cnn2-c1ccc(F)cc1
4. O=C(Cn1cc(Cl)c(C(F)(F)F)n1)N1CCCc2c1cnn2-c1ccc(F)cc1
5. COC(=O)C1CCc2c(cnn2-c2ccc(F)cc2)N1C(=O)Cn1nc(C(F)(F)F)c(Cl)c1C (centres unmarked)

**Result**
["< 1 µM", "< 1 µM", "< 1 µM", "< 1 µM", "< 1 µM"]

Please report IC50 for every entry that follows.
1. O=C(Cn1nc(C(F)(F)F)c2c1CCC2)N1CCCc2c1cnn2-c1ccc(F)cc1
2. O=C(C(O)c1cccc(C(F)(F)F)c1)N1CCCc2c1cnn2-c1ccc(F)cc1 (centres unmarked)
3. N#Cc1cnn(CC(=O)N2CCCc3c2cnn3-c2ccc(F)cc2)c1
4. Cc1cc(C(F)(F)F)nn1C(CO)C(=O)N1CCCc2c1cnn2-c1ccc(F)cc1 (centres unmarked)
5. O=C(Cn1nc(C(F)(F)F)c2c1OCCC2)N1CCCc2c1cnn2-c1ccc(F)cc1
6. Cc1cc(C(F)(F)F)nn1C(C)C(=O)N1CCCc2c1cnn2-c1ccc(F)cc1 (centres unmarked)

**Result**
1: < 1 µM; 2: 1 to 2.5 µM; 3: 2.5 to 12.5 µM; 4: < 1 µM; 5: < 1 µM; 6: < 1 µM

For every item below, please supply its IC50.
1. COc1cc(-n2ncc3c2CCCN3C(=O)Cn2nc(C(F)(F)F)c(Cl)c2C)ccc1Cl
2. O=C(Cc1ccc(Cl)c(OC(F)(F)F)c1)N1CCCc2c1cnn2-c1ccc(F)cc1
3. O=C(Cn1cnc(C(F)(F)F)n1)N1CCCc2c1cnn2-c1ccc(F)cc1

**Result**
["< 1 µM", "< 1 µM", "< 1 µM"]

Parameters: items (list). Returns: IC50 for each item.
1. CCC(C(=O)N1CCCc2c1cnn2-c1ccc(F)cc1)n1nc(C(F)(F)F)c(Cl)c1C (centres unmarked)
2. O=C(Cn1nc(-c2ncc[nH]2)c2cccnc21)N1CCCc2c1cnn2-c1ccc(F)cc1
3. O=C(Cc1nccc(C(F)(F)F)n1)N1CCCc2c1cnn2-c1ccc(F)cc1

**Result**
1: < 1 µM; 2: < 1 µM; 3: 2.5 to 12.5 µM

---

# Subject of test: CCR1 (Homo sapiens, UniProt P32246)
# Construct: host or cells: THP-1 cells or isolated human CD14+ monocytes
# Test method notes: Chemotaxis assay (CTX): inhibition of CCR1 mediated migration of THP-1 or monocyte cells
# Format: cell-based
# Recorded conditions: class symbols; activity for either the chemotaxis assay or binding assay
pIC50: −log10 of the molar value.
Measurement label: pIC50

Consider the reported pIC50 for these compounds:
Cc1c(Cl)c(C(F)(F)F)nn1C(C(=O)N1CCCc2c1cnn2-c1ccc(F)cc1)C(C)C (stereo not drawn)    > 6.00
O=C(Cn1nc(C(F)(F)F)c2c1CCCC2)N1CCCc2c1cnn2-c1ccc(F)cc1    > 6.00

Here's the next entry for you.
**Query** Could you share which pIC50 value was measured for Cc1nc(C(F)(F)F)cn1C(C)C(=O)N1CCCc2c1cnn2-c1ccc(F)cc1 (stereo not drawn) ?
**Result** > 6.00
